molecular target: Glutamate [NMDA] receptor; assay: The compound was tested for its ability to block PCP N-methyl-D-aspartate glutamate receptor at the PCP (phencyclidine) binding site in postmortem human frontal cortex.
I'd appreciate it if you could supply pKi values for the items below.
Kindly note that pKi refers to -log10 of the concentration in mol/L and answer with the value alone.

Query for Glutamate [NMDA] receptor: what pKi does the record show for CCC12CC3CC(N)(C1)CC(CC)(C3)C2 ?
6.72

Query for Glutamate [NMDA] receptor: what pKi does the record show for c1ccc(C2(N3CCCCC3)CCCCC2)cc1 ?
7.64

Query for Glutamate [NMDA] receptor: what pKi does the record show for NCC12CC3CC(CC(C3)C1)C2 ?
4.48

Query for Glutamate [NMDA] receptor: what pKi does the record show for CCNC12CC3CC(C)(CC(C)(C3)C1)C2 ?
5.76
